assay: Compound was tested for the inhibition of aminoacyl tRNA Synthetase
measured.metric: Ki (µM)

>>> df
                                   compound  measured_metric  measurement
0  COc1cc(CNC(=O)CCCC/C=C/C(C)C)ccc1O [Zostrix]               Ki           42

* * *

The entries below come with measured pKi values attached.
assay: Compound was tested for the inhibition of Escherichia coli glutamyl-t-RNA synthetase
pKi: −log10 of the molar value.
measured.metric: pKi

                                   molecule  measured_metric  measurement
0  NC(CCC(=O)O)C(=O)OC[C@H]1C[C@@H](O)C[C@@H](CO)N1 (some centres undefined)              pKi         4.70
1  NC(CCC(=O)O)C(=O)OC[C@H]1OC(O)[C@H](O)[C@@H]1O (some centres undefined)              pKi         3.30
2  NC(CCC(=O)O)C(=O)OC[C@H]1CCCN1 (some centres undefined)              pKi         3.42
3  NC(CCC(=O)O)C(=O)OC[C@@H]1CCCN1 (some centres undefined)              pKi         1.94
